Value source: the FLAb antibody collection (doi:10.7554/elife.23156)

B1: scFv; the commonest letter at each place (parent)
chain 1: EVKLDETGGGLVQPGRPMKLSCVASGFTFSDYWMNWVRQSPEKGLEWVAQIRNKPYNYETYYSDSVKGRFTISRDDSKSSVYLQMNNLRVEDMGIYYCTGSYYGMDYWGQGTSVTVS
chain 2: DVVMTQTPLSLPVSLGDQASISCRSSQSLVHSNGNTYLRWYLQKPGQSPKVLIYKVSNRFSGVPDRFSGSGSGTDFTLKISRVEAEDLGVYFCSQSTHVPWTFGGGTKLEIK

Variants of: B1
Assay Procedure: yeast surface expression (ratio to wild type); higher = more expressed
Applied Conditions: format: scFv 4-4-20, heavy + light
Quick reference for yeast surface expression among some variants
Just the number.

chain 1 G100P G109S ... 0.485
chain 1 G100T D106A ... 0.704
chain 1 S101F G104I ... 0.187
chain 1 G100R G104V M105S ... 0.211
chain 1 W33P N35Y ... 0.393
chain 1 F29D S30A ... 0.941
chain 1 D31G M34C N35L ... 0.825
chain 1 N35H W36S ... 0.692
chain 1 D31T M34Y ... 0.706
chain 1 M105W ... 0.648

What value of yeast surface expression has been reported for the following variant? chain 1 S101P G104W
0.299

Suppose we examine the variant chain 1 G100F S101T G104Y ; what yeast surface expression value has been reported?
0.437

Reported yeast surface expression, variant chain 1 G109K : ____
0.229

What measured yeast surface expression goes with chain 1 S30F N35C ?
0.555

What does the record list as yeast surface expression for chain 1 W108P ?
0.625
